# maps each entry to its folding stability dG
B1: EHEE_rd2_0196 (parent)
chain: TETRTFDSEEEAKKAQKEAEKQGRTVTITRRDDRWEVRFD

Variants of: B1
assayNotes: folding stability dG (cDNA display proteolysis); higher = more stable
conditionSet: PBS, room temperature

[
  {
    "variantId": "E18M",
    "folding stability dG, kcal/mol": 2.81
  },
  {
    "variantId": "K14D",
    "folding stability dG, kcal/mol": 2.9
  },
  {
    "variantId": "I28C",
    "folding stability dG, kcal/mol": 2.46
  },
  {
    "variantId": "E2N",
    "folding stability dG, kcal/mol": 2.94
  },
  {
    "variantId": "G23S",
    "folding stability dG, kcal/mol": 1.57
  },
  {
    "variantId": "F39P",
    "folding stability dG, kcal/mol": 2.06
  },
  {
    "variantId": "K21Y",
    "folding stability dG, kcal/mol": 2.64
  },
  {
    "variantId": "E11Q",
    "folding stability dG, kcal/mol": 2.54
  },
  {
    "variantId": "V26R",
    "folding stability dG, kcal/mol": 0.117
  },
  {
    "variantId": "E9W",
    "folding stability dG, kcal/mol": 3.38
  },
  {
    "variantId": "I28P",
    "folding stability dG, kcal/mol": 0.277
  },
  {
    "variantId": "A19W",
    "folding stability dG, kcal/mol": 3.05
  },
  {
    "variantId": "V37M",
    "folding stability dG, kcal/mol": 2.17
  },
  {
    "variantId": "E2S",
    "folding stability dG, kcal/mol": 2.95
  },
  {
    "variantId": "V37D",
    "folding stability dG, kcal/mol": 0.415
  },
  {
    "variantId": "S8T",
    "folding stability dG, kcal/mol": 3.37
  },
  {
    "variantId": "A12W",
    "folding stability dG, kcal/mol": 0.806
  },
  {
    "variantId": "E20N",
    "folding stability dG, kcal/mol": 2.53
  },
  {
    "variantId": "T27D",
    "folding stability dG, kcal/mol": 1.37
  },
  {
    "variantId": "E10C",
    "folding stability dG, kcal/mol": 3.04
  },
  {
    "variantId": "R30M",
    "folding stability dG, kcal/mol": 2.8
  },
  {
    "variantId": "Q22I",
    "folding stability dG, kcal/mol": 2.83
  }
]
